- System: human serum albumin HSA (Homo sapiens, UniProt P02768)
- Construct: 4 × 10 mm
- Sequence (P02768 25-609): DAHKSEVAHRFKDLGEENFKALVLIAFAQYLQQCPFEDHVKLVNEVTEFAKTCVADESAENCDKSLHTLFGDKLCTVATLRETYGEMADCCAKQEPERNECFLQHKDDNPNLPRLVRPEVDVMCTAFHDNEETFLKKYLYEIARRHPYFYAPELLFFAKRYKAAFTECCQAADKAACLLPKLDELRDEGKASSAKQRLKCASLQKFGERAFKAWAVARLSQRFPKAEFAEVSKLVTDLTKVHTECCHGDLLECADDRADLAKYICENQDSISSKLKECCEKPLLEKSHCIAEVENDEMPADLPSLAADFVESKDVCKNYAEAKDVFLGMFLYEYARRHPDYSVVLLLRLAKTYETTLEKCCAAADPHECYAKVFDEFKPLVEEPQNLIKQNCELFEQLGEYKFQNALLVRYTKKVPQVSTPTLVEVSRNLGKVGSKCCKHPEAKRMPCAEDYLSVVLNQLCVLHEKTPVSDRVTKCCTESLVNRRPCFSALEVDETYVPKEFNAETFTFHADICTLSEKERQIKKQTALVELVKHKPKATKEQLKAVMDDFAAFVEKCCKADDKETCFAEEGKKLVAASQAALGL
- Assay Overview: HPLC on immobilized human serum albumin column (HPLC-HSA)
- Format: in vitro ADME
- Experimental Conditions: logarithm of retention factor, mobile phase pH 7.4
The entries below come with measured log kHSA values attached.
Measurement Name: log kHSA

# Compound, System, Test Result
records = [
    ("CC[C@@H](C(N)=O)N1CCCC1=O", "human serum albumin HSA (Homo sapiens, UniProt P02768)", -1.16),
    ("CCC(C)n1ncn(-c2ccc(N3CCN(c4ccc(OCC5COC(Cn6cncn6)(c6ccc(Cl)cc6Cl)O5)cc4)CC3)cc2)c1=O (stereo not shown)", "human serum albumin HSA (Homo sapiens, UniProt P02768)", 0.98),
    ("CN1CCC[C@@H]1Cc1c[nH]c2ccc(CCS(=O)(=O)c3ccccc3)cc12", "human serum albumin HSA (Homo sapiens, UniProt P02768)", 0.58),
    ("CCC[C@@H]1C[C@@H](C(=O)N[C@@H]([C@H]2O[C@H](SC)[C@H](O)[C@@H](O)[C@H]2O)[C@@H](C)O)N(C)C1", "human serum albumin HSA (Homo sapiens, UniProt P02768)", -0.08),
]
